Just for reference, ChEMBL document CHEMBL1157539 is where these values come from.

- Tested on: HepG2
- Experimental details: GSK_TCMDC: Percent inhibition of human HepG2 cell line. Test compounds present at 10uM.
- Type: functional
Reported property: Inhibition

Some solved cases for reference:
Compound	Test system	Data value
CN1CCN(c2ccnc3ccc(NC(=O)Nc4cccc5c(C#N)cccc45)cc23)CC1	HepG2	0%
CCCCOc1ccc(CNCCCCCCNCc2ccc(OCCCC)c3ccccc23)c2ccccc12.CS(=O)(=O)O	HepG2	100%
CCn1c2ccccc2c2cc(Cc3cnc(N)nc3N)ccc21.Cl	HepG2	28%
Cc1cccc2nc(-c3ccc(-c4ccc(NC(=O)Nc5ccsc5)cc4)s3)[nH]c12	HepG2	74%
O=C(NCc1cccc2ccccc12)C(c1cc2ccccc2o1)N1CCN(C(c2ccccc2)c2ccccc2)CC1 (centres undefined)	HepG2	0%
Cc1cc(N[C@@H](Cc2ccccc2)C(=O)NCCOc2ccccc2)nc(NCCc2ccccc2)n1.O=C(O)C(F)(F)F	HepG2	12%
COc1ccccc1CNc1nc(Nc2ccccc2C)nc2ccccc12	HepG2	24%
COC(=O)c1sc2ccccc2c1NC(=O)c1ccc(C)c(C)c1	HepG2	4%

The reported Inhibition of the compound CC(C)CNCc1cccc(-c2ccc(CN(CCCN3CCN(C)CC3)C(=O)CCC3CCCC3)cc2)c1.O=C(O)C(F)(F)F was 82%
